# TESTED_SYSTEM: RIPK1 recombination protein (Homo sapiens (Human))
# Sequence (Q13546 other isoform, or with tags, fused parts or gaps): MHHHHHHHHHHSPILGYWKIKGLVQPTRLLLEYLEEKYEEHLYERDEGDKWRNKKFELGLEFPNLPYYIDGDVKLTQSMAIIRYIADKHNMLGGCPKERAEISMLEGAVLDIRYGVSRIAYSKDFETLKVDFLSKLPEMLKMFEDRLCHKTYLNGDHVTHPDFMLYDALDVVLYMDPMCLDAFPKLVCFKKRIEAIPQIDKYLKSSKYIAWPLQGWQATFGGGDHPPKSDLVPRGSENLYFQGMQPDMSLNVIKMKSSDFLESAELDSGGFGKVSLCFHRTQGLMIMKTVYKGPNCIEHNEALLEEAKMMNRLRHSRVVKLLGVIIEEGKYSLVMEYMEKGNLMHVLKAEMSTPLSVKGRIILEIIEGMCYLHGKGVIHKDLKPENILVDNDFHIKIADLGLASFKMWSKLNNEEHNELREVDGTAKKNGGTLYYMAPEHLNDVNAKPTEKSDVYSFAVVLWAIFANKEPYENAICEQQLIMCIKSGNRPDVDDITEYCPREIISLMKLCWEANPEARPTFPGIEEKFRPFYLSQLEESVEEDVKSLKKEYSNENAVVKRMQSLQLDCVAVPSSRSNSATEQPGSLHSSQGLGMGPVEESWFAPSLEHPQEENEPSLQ
# ASSAY_NOTES: RIPK1 kinase activity assay (ADP-Glo)
# CONDITION_PARAMETERS: RIPK1 kinase activity, ADP-Glo, 10 μM ATP
pIC50: −log10 of the molar value.
OBSERVATION_TYPE: pIC50

Illustrative cases are given below, each with its answer.
input: Supply pIC50 measured with RIPK1 recombination protein (Homo sapiens (Human)) for CC(C)n1ncc2cnc(C(=O)NC3(c4ccc(-c5cncn([C@@H](C)C(F)(F)F)c5=O)cc4F)CC3)nc21 (stereo in doubt) .
output: 7.54

input: Supply pIC50 measured with RIPK1 recombination protein (Homo sapiens (Human)) for CC(C#N)n1cncc(-c2ccc(C3(NC(=O)c4ncc5cnn(C(C)C)c5n4)CC3)cc2)c1=O (stereo in doubt) [Compound 82] .
output: 7.29

input: Supply pIC50 measured with RIPK1 recombination protein (Homo sapiens (Human)) for CC(C)n1cncc(-c2ccc(C3(NC(=O)c4ncc5cnn([C@@H](C)C6CC6)c5n4)CC3)cc2)c1=O .
output: 7.27

input: Supply pIC50 measured with RIPK1 recombination protein (Homo sapiens (Human)) for Cn1cncc(-c2ccc(C3(NC(=O)c4nnc(Cc5c(F)cccc5F)[nH]4)CC3)cc2)c1=O .
output: 7.42

input: Supply pIC50 measured with RIPK1 recombination protein (Homo sapiens (Human)) for CC(C)n1ncc2cnc(C(=O)NC3(c4cc(F)c(-c5cncn(CC6CC6)c5=O)cc4F)CC3)nc21 .
output: 7.57

[P] O=C(NC1(c2ccc(-c3cncn(CC4CC4)c3=O)cc2)CC1)c1ncc2cnn(CC3CC3)c2n1
[Q] CC(C)n1cncc(-c2ccc(C3(NC(=O)c4ncc5cnn(C(C)C)c5n4)CC3)c(F)c2)c1=O
input: Two entries are listed, P and Q . Which one carries the higher pIC50? // output: label of the selected item
output: P

----------
compounds and their reported IC50
# System: U937 cell line (human histiocytic lymphoma cell line)
# ASSAY_NOTES: U937 cell viability assay (TNF-α + Z-VAD-FMK induced necroptosis)
# Assay type: cell-based
# CONDITION_PARAMETERS: Homo sapiens, U-937; U937 cells, hTNF-α 0.1 μg/mL + Z-VAD-FMK 50 μM, 20 hours, CellTiter-Glo
Answer format: numeric, nM implied, no suffix.

Illustrative cases are given below, each with its answer.
input: Please supply the value of reported IC50 for the item Cn1cncc(-c2ccc(C3(NC(=O)c4nc5n(n4)[C@@H](c4ccccc4)CC5)CC3)cc2)c1=O
output: 12

input: Please supply the value of reported IC50 for the item CC(C)n1ncc2cnc(C(=O)NC3(c4ccc(-c5cncn(CC6CC6)c5=O)c(F)c4F)CC3)nc21
output: 3

input: Please supply the value of reported IC50 for the item CC(C)n1cncc(-c2ccc(C3(NC(=O)c4ncc5cnn(-c6ccccn6)c5n4)CC3)cc2)c1=O
output: 51

New cases:
input: Please supply the value of reported IC50 for the item CC(C)n1cncc(-c2ccc(C3(NC(=O)c4ncc5cnn(-c6ccccc6)c5n4)CC3)cc2)c1=O
output: 3

input: Please supply the value of reported IC50 for the item CC(C)n1ncc2cnc(C(=O)NC3(c4ccc(-c5cnc(N)n(C)c5=O)cc4)CC3)nc21
output: 8

input: Please supply the value of reported IC50 for the item C[C@@H](n1cncc(-c2ccc(C3(NC(=O)c4ncc5cnn(CC6CC6)c5n4)CC3)c(F)c2)c1=O)C(F)(F)F
output: 3

input: Please supply the value of reported IC50 for the item CC(C)n1ncc2cnc(C(=O)NC3(c4ccc(-c5cncn(C6COC6)c5=O)cc4)CC3)nc21
output: 64
